binders and their reported pKd
molecular target: HuR RRM3 (human, UniProt Q15717 243-326); experiment: ITC; n=0.8; ITC: 50 mM sodium phosphate pH 7.0, 200 mM NaCl, 2 mM beta-mercaptoethanol, 298 K; NMR: 20 mM sodium phosphate pH 7.0, 200 mM NaCl, 5 mM DTT, 1 mM EDTA, 298 K; details: protein: recombinant; tags: untagged (His6-GST cleaved with TEV)
Sequence (Q15717 243-326): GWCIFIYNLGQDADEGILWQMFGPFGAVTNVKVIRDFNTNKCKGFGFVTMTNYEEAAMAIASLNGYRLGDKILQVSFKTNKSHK
Units for pKd: none; it is -log10 of a concentration expressed in mol/L.

1) UUUAUU (ssRNA) [AU6]
4.33

Now consider a different binder.
### Prompt Recorded pKd of UUUUUU (ssRNA) [U6] , please.
### Response 4.71
